# Procedure Summary: M. tuberculosis growth inhibition, HTS (AID 1259417);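 note: bacteria grown with compound for 5 days at 37 °C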
# Settings: M. tuberculosis DsRed fluorescence growth inhibition; stronger effect = higher value; concentration not given here
Out of some 1,100 compounds screened, about 760 (69%) were called active. The set was probably picked from earlier hits. This is one part of the list.
Measured Metric: inhibition (%)
Numeric only. Scale: %

Dear colleague, I am looking for the recorded inhibition of the following molecule: "O=C(Cn1nc(CNc2ccc(Cl)cc2)[n+]2c1CCCCC2)c1ccc(Br)cc1"
92.9

Check "c1ccc(CCNc2nc3ccccc3[nH]2)cc1" too.
21.4

Check "CCOC(=O)c1c(NC(=O)c2c(F)c(F)c(F)c(F)c2F)sc(C(N)=O)c1C" too.
98.6

Check "Cc1ccc2nc(NCc3ccccc3)[nH]c2c1" too.
43

Check "Cc1ccc(-n2cc(-c3ccccc3)c3c(NCc4cccnc4)ncnc32)cc1" too.
19.7

Check "O=C(CC12CC3CC(CC(C3)C1)C2)Nc1ccc(N2CCOCC2)c(Cl)c1" too.
33.8

Check "O=C(Oc1c(Cl)cc(Cl)c2cccnc12)c1cc(S(=O)(=O)N2CCCCC2)ccc1Cl" too.
98.6

Check "CCSc1ccc(C(=O)Nc2nnc(-c3ccco3)o2)cc1" too.
83.8

Check "CCOc1ccc2ccccc2c1C(=O)Nc1sc(C)c(C)c1C(N)=O" too.
9.82

Check "O=C(Oc1cccc2cccnc12)c1ccc(S(=O)(=O)N2CCCCC2)cc1" too.
99.4

Check "[O-][n+]1onc2c3cc(-c4ccccc4)nnc3ccc21" too.
80.6

Check "O=C(Oc1ccccc1Cl)c1ccc(N2CCOCC2)c([N+](=O)[O-])c1" too.
0.0336

Check "CNC(=O)c1c(NC(=O)c2cccc(C)c2)sc2c1CCC2" too.
9.53

Check "Cc1ccnc(NC(=O)COc2ccc([N+](=O)[O-])cc2)c1" too.
-0.546

Check "Cc1[nH]c2ccccc2c1SCCNC(=O)c1cc2ccccc2oc1=O" too.
5.93

Check CCC(C)c1ccc(O)c(NC(=S)NC(=O)c2cccnc2)c1 (centres undefined) too.
99.4

Check "CCOC(=O)c1c(NC(=O)c2c(F)c(F)c(F)c(F)c2F)sc2c1CCCCC2" too.
97.9

Check "CCc1nc2sc(C(=O)NCc3ccc(F)cc3)c(N)c2c(C(F)(F)F)c1C" too.
41.1

Check "Clc1ccc(OCc2ccccc2Cl)c(CNC2CCCCC2)c1" too.
99.2

Check "Cc1cc(N2CCCCC2)nc2ccc(NC(=O)c3ccc(Br)o3)cc12" too.
0.712

Check "CCN1CCN(c2ccc(NC(=O)CC34CC5CC(CC(C5)C3)C4)cc2Cl)CC1" too.
32.7

Check "CCCC(=O)N1CCN(c2ccc(NC(=O)c3ccc(-c4ccc(Cl)cc4)o3)cc2Cl)CC1" too.
0.329

Check "COC(=O)COc1ccc(NC(=O)COc2ccc(C(C)(C)C)cc2)cc1" too.
98.8

Check "O=C(OCC#CCSc1nc2ccccc2o1)c1ccco1" too.
59.9
